biological target: Kir3.1/Kir3.4 (Rattus norvegicus, UniProt P48548+P63251); assay: Inhibition of rat Kir3.1/Kir3.4 expressed in HEK293 cells assessed as reduction in depolarizing voltage step-induced recombinant G-protein activated inward rectifier current by whole cell patch clamp assay
pIC50: −log10 of the molar value.
Reported pIC50 values follow for various compounds

Query pIC50 on Kir3.1/Kir3.4 (Rattus norvegicus, UniProt P48548+P63251) for CC(=O)n1nc(N2CCC(COCCN3CCCC3)C2)c2c(-c3ccccc3)csc21 (stereo not given)
> 6.30

Query pIC50 on Kir3.1/Kir3.4 (Rattus norvegicus, UniProt P48548+P63251) for c1ccc(-c2csc3[nH]nc(N4CCCC(COCCN5CCCC5)C4)c23)cc1 (stereo not given)
> 6.30

----------
target: Kir3.1/Kir3.4 (Rattus norvegicus, UniProt P48548+P63251); experiment: Inhibition of rat Kir3.1/Kir3.4 expressed in HEK293 cells assessed as reduction in depolarizing voltage step-induced recombinant G-protein activated inward rectifier current by whole cell patch clamp assay
pIC50: −log10 of the molar value.
READOUT KIND: pIC50

Worked cases, pIC50 given:
CS(=O)(=O)n1nc(N2CC3CC2CC3OCCN2CCCC2)c2c(-c3ccc(F)cc3)csc21 (stereo not drawn); > 6.30
Fc1ccc(-c2csc3[nH]nc(N4CC5CC4CC5OCCN4CCCC4)c23)cc1 (stereo not drawn); > 6.30

// next item, pIC50 requested
For the molecule c1ccc(-c2csc3[nH]nc(N4CCC(COCCN5CCCC5)CC4)c23)cc1 , what pIC50 is on record?
> 6.30

----------
Reported pIC50 values follow for various molecules
target: Kir3.1/Kir3.4 (Rattus norvegicus, UniProt P48548+P63251); assay: Inhibition of rat Kir3.1/Kir3.4 expressed in HEK293 cells assessed as reduction in depolarizing voltage step-induced recombinant G-protein activated inward rectifier current by whole cell patch clamp assay
pIC50: −log10 of the molar value.

Worked cases, pIC50 given:
c1ccc(-c2csc3[nH]nc(N4CCC(COCCN5CCCC5)C4)c23)cc1 (stereo not given); > 6.30
c1ccc(-c2csc3[nH]nc(N4C5CCC4CC(NC4CCC4)C5)c23)cc1 (stereo not given); > 6.30
Cn1nc(N2CCC(COCCN3CCCC3)CC2)c2c(-c3ccccc3)csc21; > 6.30
c1ccc(-c2csc3[nH]nc(N4CC5CC4CC5OCCN4CCCC4)c23)cc1 (stereo not given); > 6.30
CC(=O)n1nc(N2CC3CC2CC3OCCN2CCCC2)c2c(-c3ccc(F)cc3)csc21 (stereo not given); > 6.30
N#Cc1sc2[nH]nc(N3CCC(COCCN4CCCC4)CC3)c2c1-c1ccccc1; > 6.30
CC(=O)n1nc(N2CC3CC2CC3OCCN2CCCC2)c2c(-c3ccccc3)csc21 (stereo not given); > 6.30
CC(=O)n1nc(N2CCC(COCCN3CCCC3)CC2)c2c(-c3ccccc3)csc21; > 6.30

For the molecule CC(=O)n1nc(N2C3CCC2CC(OCCN2CCCC2)C3)c2c(-c3ccccc3)csc21 (stereo not given) , what pIC50 is on record?
> 6.30

For the molecule CC(C)NC1CC2CCC(C1)N2c1n[nH]c2scc(-c3ccccc3)c12 (stereo not given) , what pIC50 is on record?
6.30

For the molecule CC(=O)n1nc(N2CCCC(COCCN3CCCC3)C2)c2c(-c3ccccc3)csc21 (stereo not given) , what pIC50 is on record?
> 6.30

For the molecule CC(C)NC(=O)c1sc2[nH]nc(N3CCC(COCCN4CCCC4)CC3)c2c1-c1ccccc1 , what pIC50 is on record?
> 6.30

For the molecule CN(C)C(=O)c1sc2c(c(N3CCC(COCCN4CCCC4)CC3)nn2C)c1-c1ccccc1 , what pIC50 is on record?
6.30

For the molecule c1ccc(-c2csc3[nH]nc(N4C5CCC4CC(N4CCC4)C5)c23)cc1 (stereo not given) , what pIC50 is on record?
6.30

For the molecule c1ccc(-c2csc3[nH]nc(N4C5CCC4CC(OCCN4CCCC4)C5)c23)cc1 (stereo not given) , what pIC50 is on record?
> 6.30

----------
Molecular target: Kir3.1/Kir3.4 (Rattus norvegicus, UniProt P48548+P63251)
Sequence (P63251 whole entry): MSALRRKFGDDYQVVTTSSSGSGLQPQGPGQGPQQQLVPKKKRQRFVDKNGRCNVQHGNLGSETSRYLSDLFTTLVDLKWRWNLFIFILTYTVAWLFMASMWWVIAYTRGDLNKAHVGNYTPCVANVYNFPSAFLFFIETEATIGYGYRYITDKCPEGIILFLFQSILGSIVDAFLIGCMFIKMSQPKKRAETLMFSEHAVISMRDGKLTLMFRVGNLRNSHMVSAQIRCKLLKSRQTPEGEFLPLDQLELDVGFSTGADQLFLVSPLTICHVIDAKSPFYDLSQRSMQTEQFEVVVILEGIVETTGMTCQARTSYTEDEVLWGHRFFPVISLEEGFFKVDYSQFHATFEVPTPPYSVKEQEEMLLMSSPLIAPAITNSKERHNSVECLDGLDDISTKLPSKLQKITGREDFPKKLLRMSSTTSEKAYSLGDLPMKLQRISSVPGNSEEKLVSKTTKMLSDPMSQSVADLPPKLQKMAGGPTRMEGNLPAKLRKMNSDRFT
Sequence (P48548 whole entry): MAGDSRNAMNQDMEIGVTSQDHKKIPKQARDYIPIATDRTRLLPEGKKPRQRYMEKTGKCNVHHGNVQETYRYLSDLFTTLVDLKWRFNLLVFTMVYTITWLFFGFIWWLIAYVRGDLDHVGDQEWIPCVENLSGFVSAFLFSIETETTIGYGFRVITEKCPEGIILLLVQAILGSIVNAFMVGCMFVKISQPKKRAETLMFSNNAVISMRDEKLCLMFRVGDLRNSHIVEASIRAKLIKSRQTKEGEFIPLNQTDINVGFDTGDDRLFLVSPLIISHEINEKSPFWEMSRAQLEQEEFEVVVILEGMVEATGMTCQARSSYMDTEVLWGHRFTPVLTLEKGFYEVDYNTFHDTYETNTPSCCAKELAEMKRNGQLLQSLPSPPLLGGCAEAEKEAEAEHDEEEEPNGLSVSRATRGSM
Assay: Inhibition of rat Kir3.1/Kir3.4 expressed in HEK293 cells assessed as reduction in depolarizing voltage step-induced recombinant G-protein activated inward rectifier current by whole cell patch clamp assay
pIC50: −log10 of the molar value.
Reported pIC50 values follow for various compounds

For the compound CS(=O)(=O)n1nc(N2CCC(COCCN3CCCC3)CC2)c2c(-c3ccccc3)csc21 , what pIC50 is on record?
> 6.30

For the compound c1ccc(-c2csc3[nH]nc(N4C5CCC4CC(COCCN4CCCC4)C5)c23)cc1 (stereo not given) , what pIC50 is on record?
> 6.30

For the compound CNC(=O)c1sc2[nH]nc(N3CCC(COCCN4CCCC4)CC3)c2c1-c1ccccc1 , what pIC50 is on record?
> 6.30

For the compound CN(C)C(=O)c1sc2[nH]nc(N3CCC(COCCN4CCCC4)CC3)c2c1-c1ccccc1 , what pIC50 is on record?
6.30

For the compound Brc1sc2[nH]nc(N3CC4CC3CC4OCCN3CCCC3)c2c1-c1ccccc1 (stereo not given) , what pIC50 is on record?
> 6.30
